B1: FBXO39 (parent)
chain: RVFKARIYTNRYETNEEDKTLQEI

- Variants of: B1
- Protocol summary: protein stability index of a GFP-peptide fusion (GPS, HEK-293T) (PSI 1-6); higher = more stable;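 note: lentivirally expressed fusions sorted by FACS into six bins by GFP to DsRed ratio, PSI derived from sequencing read proportions per bin multiplied by bin number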
- Measurement setup: c terminus: a fixed tail appended
Outcome measure: protein stability index

> print(dat)
    variant.description          outcome.measure  observed
 1                 N15M  protein stability index      3.15
 2                  V2D  protein stability index      4.76
 3                  A5V  protein stability index      1.67
 4                 N10S  protein stability index      3.06
 5                 E23T  protein stability index      2.44
 6                  T9G  protein stability index      2.49
 7                 N10I  protein stability index      2.73
 8                 N10F  protein stability index      1.93
 9                  I7F  protein stability index      2.67
10                 N10M  protein stability index      3.04
11                 T14C  protein stability index         2
12                 Q22H  protein stability index      1.64
13                  T9N  protein stability index      2.87
14                 I24M  protein stability index      2.25
15                 D18C  protein stability index      2.33
16                 I24P  protein stability index      3.21
17                 R11S  protein stability index      3.38
18                 E16W  protein stability index      2.27
19                 N15T  protein stability index         3
20                 D18T  protein stability index      2.36
21                  T9Q  protein stability index      2.73
22                  F3K  protein stability index      4.32
23                 E16A  protein stability index       2.2
24                 I24Q  protein stability index      3.32
25                 K19L  protein stability index      2.44
26                  K4V  protein stability index      2.16
27                  R6K  protein stability index      3.01
28                  T9P  protein stability index      3.15
29                  F3V  protein stability index      4.15
30                 L21I  protein stability index      2.62
31                  K4P  protein stability index      4.27
32                  K4Y  protein stability index      2.11
33                 L21G  protein stability index       3.2
34                  T9S  protein stability index      2.18
35                 Y12W  protein stability index      2.34
36                 R11C  protein stability index      2.05
37                 L21K  protein stability index       2.5
38                  Y8A  protein stability index      3.84
39                 E16F  protein stability index      1.45
40                 E16D  protein stability index      2.88
41                 E16L  protein stability index      1.75
42                  A5F  protein stability index      1.63
43                  F3S  protein stability index      4.54
44                 T20K  protein stability index      2.53
45                 E17M  protein stability index      1.89
46                  I7N  protein stability index       2.7
47                 D18H  protein stability index      2.16
48                 K19A  protein stability index      2.15
49                 L21C  protein stability index      2.21
50                  R6S  protein stability index      3.37
51                  T9Y  protein stability index      2.16
52                 R11N  protein stability index      2.53
53                  A5C  protein stability index      3.51
54                 T14G  protein stability index      2.29
55                 E17I  protein stability index      1.59
56                 I24E  protein stability index      3.48
57                 N15F  protein stability index      1.99
58                 I24N  protein stability index      2.64
59                 Y12E  protein stability index      3.58
60                 E23M  protein stability index      2.14
61                  R1K  protein stability index       2.6
62                 E13A  protein stability index      3.08
63                  R1D  protein stability index      3.95
64                  F3E  protein stability index      5.23
65                 T20F  protein stability index      2.74
66                 D18K  protein stability index       2.7
67                 Q22F  protein stability index      1.76
68                 I24H  protein stability index       3.7
69                  A5S  protein stability index      2.71
70                  Y8Q  protein stability index      2.77
71                  Y8D  protein stability index      4.51
72                  Y8E  protein stability index      3.93
73                 E16P  protein stability index      1.89
74                 T20D  protein stability index      3.48
75                 D18R  protein stability index      2.38
76                 E16V  protein stability index      1.92
77                 Q22G  protein stability index      3.19
78                 I24K  protein stability index      2.98
79                  I7L  protein stability index       2.9
80                 Y12C  protein stability index      2.07
81                 K19N  protein stability index      2.83
82                  F3M  protein stability index      4.41
83                 N15C  protein stability index      1.86
84                  V2E  protein stability index      4.36
